# SYSTEM_TESTED: recombinant DYRK1A kinase (Homo sapiens (Human), UniProt Q13627)
# TEST_PROTOCOL: DYRK1A kinase assay (Ser/Thr 18 peptide Z-lyte FRET)
# STUDY_CONDITIONS: DYRK1A kinase activity, Z-lyte Ser/Thr 18 peptide, 15 μM ATP; method text calls the value IC50; read-out: EC50 (the source's name)
METRIC: pIC50
Hey, just a heads up that pIC50 is the negative log base 10 of the concentration in molar.

Some solved entries appear below for comparison.
>  <COMPOUND_STRING>
COc1nc(N[C@H]2CC[C@](C)(O)CC2)nn2ccc(-c3cnc4nccn4c3)c12

>  <SYSTEM_TESTED>
recombinant DYRK1A kinase (Homo sapiens (Human), UniProt Q13627)

>  <METRIC>
pIC50

>  <OBSERVED_MEASUREMENT>
9.40

$$$$
>  <COMPOUND_STRING>
COc1nc(NC2CCN(CC(F)F)CC2)nn2ccc(-c3ccc4ncccc4c3)c12

>  <SYSTEM_TESTED>
recombinant DYRK1A kinase (Homo sapiens (Human), UniProt Q13627)

>  <METRIC>
pIC50

>  <OBSERVED_MEASUREMENT>
7.84

$$$$
>  <COMPOUND_STRING>
COc1nc(NC2CCC(C)(C)CC2)nn2ccc(-c3cnc4nccn4c3)c12

>  <SYSTEM_TESTED>
recombinant DYRK1A kinase (Homo sapiens (Human), UniProt Q13627)

>  <METRIC>
pIC50

>  <OBSERVED_MEASUREMENT>
8.66

$$$$

*Q* Please report the recorded pIC50 for COc1nc(N[C@@H]2CCN(C(C)=O)CC2(F)F)nn2ccc(-c3ccc4nccnc4c3)c12 .
*A* 8.52

*Q* Tell me the measured pIC50 of COc1nc(NC2CCN(C3COC3)CC2)nn2ccc(-c3ccc4nccnc4c3)c12 , please.
*A* 8.55

*Q* Which pIC50 value is on record for COc1nc(N[C@H]2C[C@@](C)(NC(C)=O)C2)nn2cc(F)c(-c3ccc4ncccc4c3)c12 ?
*A* 8.35

*Q* Find the recorded pIC50 belonging to COc1nc(N[C@@H]2CCC(=O)N(C)C2)nn2ccc(-c3ccc4nccnc4c3)c12 and report it.
*A* 8.57

*Q* Give the measured pIC50 of COc1nc(NC2CCN(CC(F)(F)F)CC2)nn2ccc(-c3ccc4ncccc4c3)c12 .
*A* 7.09

*Q* Using the record for COc1nc(N[C@@H]2CCN(C3COC3)CC2(F)F)nn2ccc(-c3cc(F)c4nnn(CC(F)F)c4c3)c12 , report its pIC50.
*A* 8.74

*Q* Fill blank: measured pIC50 of the molecule COc1nc(N[C@H]2C[C@](C)(NC(C)=O)C2)nn2ccc(-c3ccc4nc(C)n(CCO)c4c3)c12 is ____.
*A* 8.54

*Q* Looking for the measured pIC50 of C[C@]1(O)CC[C@H](Nc2nc(OCC(F)F)c3c(-c4ccc5ncnn5c4)ccn3n2)CC1 , can you help?
*A* 8.54

*Q* Which pIC50 value belongs to COc1nc(N[C@H]2C[C@](C)(C(=O)NC3CC(F)(F)C3)C2)nn2ccc(-c3ccc4nc(C)n(CC(F)F)c4c3)c12 ?
*A* 8.85

*Q* # get_value(readout='pIC50', item= COc1nc(N[C@@H]2CCN(C(C)=O)CC2(F)F)nn2cc(F)c(-c3ccc4ncccc4c3)c12 )
*A* 8.70

*Q* What measured pIC50 goes with COc1nc(N[C@@H]2CCNCC2(F)F)nn2ccc(-c3ccc4ncnn4c3)c12 ?
*A* 8.16

*Q* Requested read-out: pIC50. Entry: COc1nc(N[C@@H]2CCN(C(C)=O)C[C@@H]2F)nn2ccc(-c3ccc4nnn(CC(F)F)c4c3)c12
*A* 8.82

*Q* What does the record list as pIC50 for COc1nc(NC2CCC3(CC2)COC3)nn2ccc(-c3ccc4nnn(CC(F)F)c4c3)c12 ?
*A* 8.49

###

Examples of compounds with documented IC50 follow.
# SYSTEM_TESTED: recombinant DYRK1A kinase (Homo sapiens (Human))
# TEST_PROTOCOL: DYRK1A kinase assay (Ser/Thr 18 peptide Z-lyte FRET)
# STUDY_CONDITIONS: DYRK1A kinase activity, Z-lyte Ser/Thr 18 peptide, 15 μM ATP; method text calls the value IC50; read-out: EC50 (the source's name)
# Protocol: Representative compounds were screened using the assay procedure for DYRK1A kinase activity as described below. Each compound was dissolved in DMSO as a 10 mM stock and used to prepare compound source plates. […] The Emission ratio (Em) was calculated as a ratio of the coumarin (C) emission signal (at 445 nm)/Fluorescein (F) emission signal (at 520 nm). The percent phosphorylation was then calculated using the following formula: [1−((Em ratio X F100%)-C100%)/((C0%-C100%) +(Em ratio X (F100%−F0%)))]. […]
Give the value, in units of nM, as a plain number.

>  <COMPOUND>
COc1nc(N[C@H]2CC[C@](C)(O)CC2)nn2cc(F)c(-c3cnc4nccn4c3)c12 [Compound 996]

>  <IC50 [nM]>
2.9

$$$$
>  <COMPOUND>
C[C@]1(O)CC[C@H](Nc2nc(OC3COC3)c3c(-c4ccc5ncnn5c4)ccn3n2)CC1 [Compound 621]

>  <IC50 [nM]>
35.4

$$$$
>  <COMPOUND>
COc1nc(N[C@@H]2CN(C(C)=O)C[C@@H]2F)nn2ccc(-c3cnc4nccn4c3)c12 [Compound 264]

>  <IC50 [nM]>
3.5

$$$$
>  <COMPOUND>
COc1nc(NC2CCC3(CC2)COC3)nn2ccc(-c3ccc4nncn4c3)c12 [Compound 188]

>  <IC50 [nM]>
50.3

$$$$
>  <COMPOUND>
COc1nc(N[C@H]2C[C@@H](OCCO)C2)nn2ccc(-c3ccn4nccc4c3)c12 [Compound 6]

>  <IC50 [nM]>
1.1

$$$$

*Q* Request the reported IC50 associated with COc1nc(N[C@@H](C)C2COC2)nn2ccc(-c3cnc4nccn4c3)c12 [Compound 928]
*A* 2

*Q* Return reported IC50; argument: Cc1nc2ccc(-c3ccn4nc(N[C@H]5CC[C@](C)(O)CC5)nc(OC5COC5)c34)cc2n1CC(F)F [Compound 508]
*A* 24.3

*Q* Need IC50, item COc1nc(N[C@H]2CCN(C3COC3)C[C@H]2F)nn2ccc(-c3cnc4nccn4c3)c12 [Compound 270]
*A* 5.1

###

# SYSTEM_TESTED: recombinant DYRK1A kinase (Homo sapiens (Human))
# TEST_PROTOCOL: DYRK1A kinase assay (Ser/Thr 18 peptide Z-lyte FRET)
# STUDY_CONDITIONS: DYRK1A kinase activity, Z-lyte Ser/Thr 18 peptide, 15 μM ATP; method text calls the value IC50; read-out: EC50 (the source's name)
Field: label. Allowed values: 1 (IC50 < 3 nM) or -1 (IC50 >= 3 nM).

>  <COMPOUND_STRING>
COc1nc(N[C@@H]2CCN(C3COC3)CC2(F)F)nn2ccc(-c3cc(F)c4nc(C)n(CC(F)F)c4c3)c12

>  <SYSTEM_TESTED>
recombinant DYRK1A kinase (Homo sapiens (Human))

>  <ANSWER_LABEL>
1

$$$$
>  <COMPOUND_STRING>
COc1nc(N[C@@H]2CN(C3(C#N)COC3)C[C@@H]2F)nn2ccc(-c3ccc4nnn(CC(F)F)c4c3)c12

>  <SYSTEM_TESTED>
recombinant DYRK1A kinase (Homo sapiens (Human))

>  <ANSWER_LABEL>
1

$$$$
>  <COMPOUND_STRING>
COc1nc(N[C@H]2C[C@](C)(NC(C)=O)C2)nn2ccc(-c3cc(F)c4nnn(CC(F)F)c4c3)c12

>  <SYSTEM_TESTED>
recombinant DYRK1A kinase (Homo sapiens (Human))

>  <ANSWER_LABEL>
1

$$$$

*Q* Threshold test, IC50 < 3 nM: COc1nc(N[C@H]2C[C@@](C)(N)C2)nn2ccc(-c3ccc4nccnc4c3)c12
*A* 1

###

# SYSTEM_TESTED: recombinant DYRK1A kinase (Homo sapiens (Human), UniProt Q13627)
# TEST_PROTOCOL: DYRK1A kinase assay (Ser/Thr 18 peptide Z-lyte FRET)
# STUDY_CONDITIONS: DYRK1A kinase activity, Z-lyte Ser/Thr 18 peptide, 15 μM ATP; method text calls the value IC50; read-out: EC50 (the source's name)
# pIC50 per entry
Notebook: values listed as pIC50 are -log10 of the concentration (mol/L).

*Q* Look at this compound and give its reported pIC50. COc1nc(N[C@H]2C[C@](C)(N3CCCC3=O)C2)nn2ccc(-c3ccc4nnn(C)c4c3)c12 [Compound 223]
*A* 8.80

*Q* Which pIC50 value belongs to COc1nc(N[C@H]2CCN(C3COC3)CC2(F)F)nn2ccc(-c3ccc4ncccc4c3)c12 [Compound 322] ?
*A* 8.18

*Q* Request the reported pIC50 associated with COc1nc(N[C@H]2CC[C@](C)(O)CC2)nn2cc(F)c(-c3ccc4ncccc4c3)c12 [Compound 1056]
*A* 8.96
